The entries below are paired with their reported EC50.
Molecular target: T1, CD40 ligand, P29965
T1 chain: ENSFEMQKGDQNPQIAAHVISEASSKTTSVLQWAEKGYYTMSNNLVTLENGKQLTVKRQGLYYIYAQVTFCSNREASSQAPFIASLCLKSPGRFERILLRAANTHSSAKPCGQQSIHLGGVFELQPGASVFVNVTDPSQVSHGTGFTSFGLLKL
Assay: Alphascreen, unmodified peptide, inhibition of CD40L/CD40-Fc
Only the number, expressed in nM, is required.

binder: RIESLEGEMWLINPFNGETLDEHTLEVWLK (modifications not checked) [CD40L M8_748]
unit tag: nM
EC50: 184

In the following, a different binder is considered.
## Input Please report the recorded EC50 for CD40L M8_747 (modifications not checked) peptide: LAEHAVWSLKCFPDWEWYNINIFGTDDPNHFWVECDGHGKILFPGYPEGYYENHFLHSFELED .
## Output 197

Origin of values: patent US20130266605A1
